For each record, write down the corresponding IC50.
test-target: human PD-1 (Jurkat-PD-1 cells) / PE-labeled human PD-L1-Ig (Homo sapiens)
Construct: expressed in transfected cells; host or cells: Jurkat cell line over-expressing human PD-1
Sequence (Q15116 25-288): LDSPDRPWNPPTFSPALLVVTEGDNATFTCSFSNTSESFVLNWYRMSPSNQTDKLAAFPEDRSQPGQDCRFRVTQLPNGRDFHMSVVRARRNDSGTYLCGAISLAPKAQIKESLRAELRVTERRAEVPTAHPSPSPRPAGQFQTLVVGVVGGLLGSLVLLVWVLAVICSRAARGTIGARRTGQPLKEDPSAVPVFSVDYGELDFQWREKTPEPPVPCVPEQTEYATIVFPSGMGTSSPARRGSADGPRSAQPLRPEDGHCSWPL
test-summary: Jurkat-PD-1 Cell Binding High-Content Screening Assay (CBA); Jurkat hPD1-PDL1 assay
condition-label: Jurkat cell line over-expressing human PD-1; PE-labeled PD-L1-Ig 20 nM final; compound incubated 2 hours at 37° C.; read-out: Jurkat HPD1-PDL1 IC50
Positions of bridges follow the written chain, without caps; N, C: chain ends. Non-standard residues stand in square brackets, D forms with d. Residues, ends and D or L forms follow the SMILES beside them. Bip = N[C@@H](Cc1ccc(-c2ccccc2)cc1)C(=O)O; Phe(3-Me) = Cc1cccc(C[C@H](N)C(=O)O)c1; NMeF = CN[C@@H](Cc1ccccc1)C(=O)O; NMeA = CN[C@@H](C)C(=O)O; Dab = NCC[C@H](N)C(=O)O; Sar = CNCC(=O)O
One number for each entry, in nM.

Solved cases (7 shown):
compound: CC(C)C[C@@H]1NC(=O)[C@H](Cc2c[nH]c3ccccc23)NC(=O)[C@H](CC(=O)O)NC(=O)[C@H](Cc2ccc(O)cc2)NC(=O)[C@H](Cc2ccccc2)NC(=O)CSC[C@@H](C(=O)NCC(N)=O)NC(=O)[C@H](CO)NC(=O)[C@H](C(C)C)NC(=O)[C@H](CC(C)C)NC(=O)[C@H](CCCNC(=N)N)NC(=O)[C@H](Cc2ccccc2)N(C)C(=O)[C@H](C)N(C)C(=O)[C@H](CCCNC(=N)N)NC(=O)[C@H](Cc2ccc(-c3ccccc3)cc2)NC1=O [Example 1327] ({CH2CO}-FYDWL[Bip]R[NMeA][NMeF]RLVSCG-NH2; thioether N-14)
quantity-unit: nM
observed-value: 120
//
compound: CC(C)C[C@@H]1NC(=O)[C@H](Cc2c[nH]c3ccccc23)NC(=O)[C@H](CC(=O)O)NC(=O)[C@H](Cc2ccc(O)cc2)NC(=O)[C@H](Cc2ccccc2)NC(=O)CSC[C@@H](C(=O)N[C@@H](C)C(N)=O)NC(=O)[C@H]([C@@H](C)O)NC(=O)[C@H](CCCNC(=N)N)NC(=O)[C@H](CC(C)C)NC(=O)[C@H](CC(N)=O)NC(=O)[C@H]2CCCN2C(=O)[C@H](C)N(C)C(=O)[C@H](C(C)C)NC(=O)[C@H](Cc2ccc(-c3ccccc3)cc2)NC1=O [Example 1171] ({CH2CO}-FYDWL[Bip]V[NMeA][dP]NLRTCA-NH2; thioether N-14)
quantity-unit: nM
observed-value: 940
//
compound: CC(C)C[C@@H]1NC(=O)[C@H](CCCNC(=N)N)NC(=O)[C@H](Cc2ccccc2)N(C)C(=O)[C@H](C)N(C)C(=O)[C@H](CCCNC(=N)N)NC(=O)[C@H](Cc2ccc(-c3ccccc3)cc2)NC(=O)[C@H](C(C)C)NC(=O)[C@H](Cc2c[nH]c3ccccc23)NC(=O)[C@H](CC(=O)O)NC(=O)[C@H](Cc2ccccc2)NC(=O)[C@H](Cc2ccccc2)NC(=O)CSC[C@@H](C(=O)NCC(N)=O)NC(=O)[C@H](CO)NC(=O)[C@H](C(C)C)NC1=O [Example 1238] ({CH2CO}-FFDWV[Bip]R[NMeA][NMeF]RLVSCG-NH2; thioether N-14)
quantity-unit: nM
observed-value: 170
//
compound: CC(C)C[C@@H]1NC(=O)[C@H](CCCNC(=N)N)NC(=O)[C@H](Cc2ccccc2)N(C)C(=O)[C@H](C)N(C)C(=O)[C@H](CCCNC(=N)N)NC(=O)[C@H](Cc2ccc(-c3ccccc3)cc2)NC(=O)[C@H]([C@@H](C)O)NC(=O)[C@H](Cc2c[nH]c3ccccc23)NC(=O)[C@H](CC(=O)O)NC(=O)[C@H](Cc2ccc(O)cc2)NC(=O)[C@H](Cc2ccccc2)NC(=O)CSC[C@@H](C(=O)NCC(N)=O)NC(=O)[C@H](CO)NC(=O)[C@H](C(C)C)NC1=O [Example 1283] ({CH2CO}-FYDWT[Bip]R[NMeA][NMeF]RLVSCG-NH2; thioether N-14)
quantity-unit: nM
observed-value: 700
//
compound: CC(C)C[C@@H]1NC(=O)[C@H](CC(N)=O)NC(=O)CN(C)C(=O)[C@H](C)N(C)C(=O)[C@H](C(C)C)NC(=O)[C@H](Cc2ccc(-c3ccccc3)cc2)NC(=O)[C@H](C(C)C)NC(=O)[C@H](Cc2c[nH]c3ccccc23)NC(=O)[C@H](CC(=O)O)NC(=O)[C@H](Cc2ccc(O)cc2)NC(=O)[C@H](Cc2ccccc2)NC(=O)CSC[C@@H](C(=O)NCC(N)=O)NC(=O)[C@H](CO)NC(=O)[C@H](C(C)C)NC1=O [Example 1202] ({CH2CO}-FYDWV[Bip]V[NMeA][Sar]NLVSCG-NH2; thioether N-14)
quantity-unit: nM
observed-value: 80
//
compound: CC(C)C[C@@H]1NC(=O)[C@H](Cc2c[nH]c3ccccc23)NC(=O)[C@H](CC(=O)O)NC(=O)[C@H](Cc2ccc(O)cc2)NC(=O)[C@H](Cc2ccccc2)NC(=O)CSC[C@@H](C(=O)NCC(N)=O)NC(=O)[C@H]([C@@H](C)O)NC(=O)[C@H](C(C)C)NC(=O)[C@H](CC(C)C)NC(=O)[C@H](CCN)NC(=O)[C@H]2CCCN2C(=O)[C@H](CCN)NC(=O)[C@H](C(C)C)NC(=O)[C@H](Cc2ccc(-c3ccccc3)cc2)NC1=O [Example 1414] ({CH2CO}-FYDWL[Bip]V[Dab][dP][Dab]LVTCG-NH2; thioether N-14)
quantity-unit: nM
observed-value: 320
//
compound: Cc1cccc(C[C@@H]2NC(=O)[C@H](CC(=O)O)NC(=O)[C@H](Cc3ccc(O)cc3)NC(=O)[C@H](Cc3ccccc3)NC(=O)CSC[C@@H](C(=O)N[C@@H](C)C(N)=O)NC(=O)[C@H](CO)NC(=O)[C@H](C(C)C)NC(=O)[C@H](CC(C)C)NC(=O)[C@H](CC(N)=O)NC(=O)CN(C)C(=O)[C@H](C)N(C)C(=O)[C@H](C(C)C)NC(=O)[C@H](Cc3ccc(-c4ccccc4)cc3)NC(=O)[C@H](CC(C)C)NC2=O)c1 [Example 1053] ({CH2CO}-FYD[Phe(3-Me)]L[Bip]V[NMeA][Sar]NLVSCA-NH2; thioether N-14)
quantity-unit: nM
observed-value: 120

Now for a further compound.
response.value for CC(C)C[C@@H]1NC(=O)[C@H](Cc2c[nH]c3ccccc23)NC(=O)[C@H](CC(=O)O)NC(=O)[C@H](Cc2ccc(O)cc2)NC(=O)[C@H](Cc2ccccc2)NC(=O)CSC[C@@H](C(=O)NCC(N)=O)NC(=O)[C@H](CO)NC(=O)[C@H](C(C)C)NC(=O)[C@H](CC(C)C)NC(=O)[C@H](CC(N)=O)NC(=O)CN(C)C(=O)[C@H](C)N(C)C(=O)[C@H](C(C)C)NC(=O)[C@H](Cc2ccc(-c3ccccc3)cc2)NC1=O [Example 1001] ({CH2CO}-FYDWL[Bip]V[NMeA][Sar]NLVSCG-NH2; thioether N-14) (field: IC50) = 920
